// reported pIC50 for each item listed
# TEST TARGET: human COX-1 (Homo sapiens, UniProt P23219)
# Sequence (P23219 24-599): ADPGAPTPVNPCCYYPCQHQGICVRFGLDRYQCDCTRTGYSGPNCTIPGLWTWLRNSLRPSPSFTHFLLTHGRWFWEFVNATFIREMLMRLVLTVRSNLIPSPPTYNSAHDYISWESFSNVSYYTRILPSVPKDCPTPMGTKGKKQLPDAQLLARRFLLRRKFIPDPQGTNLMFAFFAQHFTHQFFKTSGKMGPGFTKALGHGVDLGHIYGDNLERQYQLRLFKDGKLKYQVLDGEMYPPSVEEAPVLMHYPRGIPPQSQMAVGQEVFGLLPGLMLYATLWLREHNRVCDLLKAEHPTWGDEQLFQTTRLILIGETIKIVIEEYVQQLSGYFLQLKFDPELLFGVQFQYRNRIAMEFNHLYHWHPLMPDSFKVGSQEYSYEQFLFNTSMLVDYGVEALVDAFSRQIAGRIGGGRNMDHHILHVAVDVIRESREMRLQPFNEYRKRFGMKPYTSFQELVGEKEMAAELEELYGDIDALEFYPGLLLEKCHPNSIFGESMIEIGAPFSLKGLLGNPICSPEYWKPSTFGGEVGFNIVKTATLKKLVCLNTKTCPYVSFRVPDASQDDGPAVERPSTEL
# TEST DETAILS: Inhibition of PGE2 release in COS cells stably transfected with human COX-1
# CONDITION DESCRIPTION: COS cells transfected with human COX-1, 30 μM arachidonic acid
pIC50: −log10 of the molar value.

{"COMPOUND STRUCTURE STRING": "CCOc1ccc(-c2nn3cc(C(F)(F)F)ccc3c2-c2ccc(S(N)(=O)=O)cc2)cc1", "pIC50": 4.49}
{"COMPOUND STRUCTURE STRING": "NS(=O)(=O)c1ccc(-c2c(-c3cccc(F)c3)nn3cc(C(F)(F)F)ccc23)cc1", "pIC50": "< 4.00"}
{"COMPOUND STRUCTURE STRING": "NS(=O)(=O)c1ccc(-c2c(-c3ccccc3)nn3cc(C(F)(F)F)ccc23)cc1", "pIC50": 4.58}

Q: Quick one: pIC50 for NS(=O)(=O)c1ccc(-c2c(-c3ccc(F)cc3)nn3cc(C(F)(F)F)ccc23)cc1 ?
A: < 4.00

Q: Lookup CS(=O)(=O)c1ccc(-c2c(-c3ccc(F)cc3)nn3cc(C(F)(F)F)ccc23)cc1
A: < 4.00

Q: Consider next the compound CS(=O)(=O)c1ccc(-c2c(-c3cccc(F)c3)nn3cc(C(F)(F)F)ccc23)cc1 in the same way.
A: < 4.00

Q: What do you get for CS(=O)(=O)c1ccc(-c2c(-c3ccccc3)nn3cc(C(F)(F)F)ccc23)cc1 ?
A: < 4.00
